- System: NCI-H460 lung
- TEST PROTOCOL: NCI tumour cell line growth inhibition, 48 h
In this section, each of the compounds is paired with its reported TGI.
MEASURED QUANTITY: TGI

COMPOUND | MEASURED TARGET | RESULT
Cc1ccc2c(=O)cc(-c3csc4ccccc34)[nH]c2n1 | NCI-H460 lung | > 33.9 µM
C=CCC(C)C12CCNC(Cc3ccc(O)cc31)C2C (stereo unspecified) | NCI-H460 lung | > 100 µM
OC(C1CCC=NN1C(O)(C(F)(F)F)C(F)(F)F)(C(F)(F)F)C(F)(F)F (stereo unspecified) | NCI-H460 lung | > 10 µM
Oc1ccc(Cl)cc1C1=N/C(=N\CN2CCN(C/N=C3/N=C(c4cc(Cl)ccc4O)CC(c4ccccc4)N3)CC2)NC(c2ccccc2)C1 (stereo unspecified) | NCI-H460 lung | > 100 µM
Cn1ccnc1Sc1ccc(/C=N/NC(=O)c2ccccc2O)cc1[N+](=O)[O-] | NCI-H460 lung | > 100 µM
O=C(O)CSc1n[nH]c(-c2ccc(O)cc2)n1 | NCI-H460 lung | > 100 µM

* * *

- Tested on: SNB-78 CNS
- TEST PROTOCOL: NCI tumour cell line growth inhibition, 48 h

COMPOUND | TGI
CNC(P(=O)([O-])[O-])P(=O)([O-])[O-].N.N.[Pt+2] | > 100 µM
CC1OC(OCC2OC(Oc3c(-c4ccc(O)cc4)oc4cc(O)cc(O)c4c3=O)C(OC3OCC(O)(CO)C3O)C(O)C2O)C(O)C(O)C1O (stereo not given) | > 100 µM
O=c1c2ccccc2[nH]c(=S)n1-c1ccc(Br)cc1 | > 100 µM
CCCC/C=C1\CCC(CN2CCCCC2)C1=O (stereo not given) | 27.4 µM
COc1cccc2cc(C)c(C(=O)c3ccccc3)nc12 | > 100 µM

* * *

- Test system: HCT-15 colon
- TEST PROTOCOL: NCI tumour cell line growth inhibition, 48 h; in the data active means GI50 below about 0.43 µM; inactive means the rest
Possible outcomes: active, inactive

COMPOUND | QUALITATIVE LABEL
N#Cc1c(Sc2ccccc2N)cccc1Sc1ccccc1N | inactive
COc1ccc2nc(N/N=C(\C)c3ccccn3)cc(C)c2c1 | active
O=[N+]([O-])C1C(c2ccccc2)C12c1ccccc1-c1ccccc12 (stereo unspecified) | inactive
CNC(=O)c1cc(OC2CCC(NC(=O)Nc3ccc(Cl)c(C(F)(F)F)c3)CC2)ccn1 (stereo unspecified) | inactive
COc1cc2c3c(n(C)c(=O)c2cc1OC)-c1cc2c(cc1/C3=C\CCCCCN)OCO2 | inactive
N=C1C(c2nc(-c3ccc(Br)cc3)cs2)=C(O)CN1Cc1cccnc1 | inactive
CCC[CH2][Sn-]([CH2]CCC)([CH2]CCC)[O]c1cc(Cl)c(Cl)cc1Cl | active
COc1cc(C2C=C(c3cccc(NC(C)=O)c3)Nc3ncnn32)cc(OC)c1OC (stereo unspecified) | inactive
O=C(NNc1nc(Cl)nc(N2CCN(C(c3ccccc3)c3ccccc3)CC2)n1)c1ccccc1 | inactive
O=C(CN1CCN(c2ncccn2)CC1)Nc1ccc(Cl)cc1C(=O)c1ccccc1Cl | inactive
COc1cc(/C(C#N)=C/c2ccc3c(c2OC)OCO3)cc2c1OCO2 | active

* * *

- System: A498 renal
- TEST PROTOCOL: NCI tumour cell line growth inhibition, 48 h

MOLECULE | MEASURED TARGET | TGI
CC(=O)O/C=C(/C=C/OC(C)=O)C(C/C=C(\C)C#CC=C(C)C)OC(C)=O (stereo not given) | A498 renal | > 100 µM
CC1=C(C(=O)Nc2ccccc2C)C(c2ccccc2)C(C(=O)Nc2ccccc2C)=C(C)N1 | A498 renal | > 100 µM
O=C(Nc1ccccc1F)c1c(O)nc2sccn2c1=O | A498 renal | > 10 µM
CCC(CCCN)Nc1cc(OC)cc2cccnc12 (stereo not given) | A498 renal | > 100 µM
CCOC(=O)/C(O)=C1\C(=O)N(C)C(=O)C1c1ccc(OC)c(OC)c1 (stereo not given) | A498 renal | > 100 µM

* * *

- Tested on: UACC-62 melanoma
- TEST PROTOCOL: NCI tumour cell line growth inhibition, 48 h

COMPOUND | TGI
Cc1ccc(C(=O)OC[C@H]2CC[C@@H](n3cc(N(C)C4CCCCC4)c(=O)[nH]c3=O)O2)cc1 | 96.2 µM
O=C(O)c1c(-c2cccc3ccccc23)sc(-c2cccc3ccccc23)c1C(=O)O | > 100 µM
CN(C)c1ccc(N2C(=S)SC(=Nc3ccccc3)C2=Nc2ccccc2)cc1 | > 100 µM
CC1=NOC2(C1)/C(=N/O)CCC/C2=N\O (centres undefined) | > 100 µM

* * *

- Tested on: OVCAR-8 ovarian
- TEST PROTOCOL: NCI tumour cell line growth inhibition, 48 h
In this section, each of the compounds is paired with its reported TGI.
MEASURED QUANTITY: TGI

COMPOUND | RESULT
O=c1oc2cc(OS(=O)(=O)c3ccc(F)cc3)ccc2c2c1CCCCC2 | > 100 µM
O=C(CN1CCN(c2ncccn2)CC1)Nc1ccc(Cl)cc1C(=O)c1ccccc1Cl | > 100 µM
O=C1NCc2ccc3c(-c4cccc(Cl)c4)c[nH]c3c21 | > 50 µM
CCc1cccc(C(C)C)c1NC(=O)C(=O)C(Cc1nc2ccccc2[nH]c1=O)C(=O)OC (stereo not given) | > 100 µM
COC(=O)/C=C/c1ccccc1N=[S@](C)(=O)c1ccc(C)cc1 | > 100 µM

* * *

In this section, each of the molecules is paired with its reported TGI.
- Test system: HT29 colon
- TEST PROTOCOL: NCI tumour cell line growth inhibition, 48 h

MOLECULE | TGI
CCC(CCCN)Nc1cc(OC)cc2cccnc12 (stereo not drawn) | > 100 µM
CC(=O)O/C=C(/C=C/OC(C)=O)C(C/C=C(\C)C#CC=C(C)C)OC(C)=O (stereo not drawn) | > 100 µM
O=C(CN1CCN(c2ncccn2)CC1)Nc1ccc(Cl)cc1C(=O)c1ccccc1Cl | > 100 µM

* * *

In this section, each of the molecules is paired with its reported TGI.
- Tested on: CCRF-CEM leukemia
- TEST PROTOCOL: NCI tumour cell line growth inhibition, 48 h
MEASURED QUANTITY: TGI

MOLECULE | MEASURED QUANTITY | RESULT
Cc1ccc(C(=O)OC[C@H]2CC[C@@H](n3cc(N(C)C4CCCCC4)c(=O)[nH]c3=O)O2)cc1 | TGI | 93 µM
COC(=O)Cc1ccc2c(c1)Sc1ccc(CC(=O)OC)cc1N2C | TGI | > 95.7 µM
Cn1c(=O)nc2n(-c3ccc(Cl)cc3)c3ccc(Cl)cc3nc-2c1=O | TGI | 85.6 µM
Cn1ccnc1S/C(=C\C=C(C#N)C#N)c1ccc(Cl)cc1 | TGI | > 11.2 µM
Cn1ccnc1Sc1ccc(/C=N/NC(=O)c2ccccc2O)cc1[N+](=O)[O-] | TGI | > 100 µM
Cc1ccc(N=Nc2c(C)nn(C(=O)CC(=O)Nc3ccccc3)c2C)cc1C | TGI | > 100 µM
COc1cccc(N2C(=O)C3c4[nH]c5ccccc5c4C4c5ccccc5CCC4C3C2=O)c1 (stereo not drawn) | TGI | > 10 µM
CSc1nc(NC2CCCC2)c2cc[nH]c2n1 | TGI | > 100 µM
CC(=O)c1ccc(N=Nc2ccc3nonc3c2N)cc1 | TGI | > 100 µM
CCc1cccc(C(C)C)c1NC(=O)C(=O)C(Cc1nc2ccccc2[nH]c1=O)C(=O)OC (stereo not drawn) | TGI | > 100 µM
CN1CC2=C(OC(N)=C(C#N)C2c2cccs2)/C(=C/c2cccs2)C1 (stereo not drawn) | TGI | > 29 µM
CC1OC(OCC2OC(Oc3c(-c4ccc(O)cc4)oc4cc(O)cc(O)c4c3=O)C(OC3OCC(O)(CO)C3O)C(O)C2O)C(O)C(O)C1O (stereo not drawn) | TGI | > 100 µM
O=C(Nc1sccc1S(=O)(=O)c1ccccc1)c1cccnc1 | TGI | > 24.5 µM
O=C(Nc1ccccc1F)c1c(O)nc2sccn2c1=O | TGI | > 10 µM
CCN1CC(C)Cn2c(=O)[nH]c3cc(Br)cc1c32 (stereo not drawn) | TGI | > 100 µM
CCN(CC)CCOc1nc2ccc(OC)cc2c2c1-c1ccc(OC)cc1C2=O | TGI | 3.26 µM
COc1ccc(-c2nn3ncccc3c2-c2ccnc(Nc3ccc(Cl)c(C(F)(F)F)c3)n2)cc1 | TGI | > 25 µM
CCOC(=O)/C(=C\NCC(O)c1ccccc1)c1nc2ccccc2[nH]1 (stereo not drawn) | TGI | 33.3 µM
COc1ccc(Cl)cc1Nc1nc(C(F)(F)F)ccc1C(=O)N/N=C/c1c(Cl)cccc1Cl | TGI | 6.17 µM
COc1ccc2c(c1)O[C@@H]1C(O)Oc3cc(OC)c(OC)cc3[C@]1(O)C2=O (stereo partly drawn) | TGI | > 100 µM
O=C(O)CSc1n[nH]c(-c2ccc(O)cc2)n1 | TGI | > 100 µM
O=C(CSc1nc2ccccc2[nH]1)Nc1ccc(-c2nc3ccccc3s2)c(Cl)c1 | TGI | > 100 µM
O=C1C(=O)N(C(=O)c2ccc(Cl)c(Cl)c2)c2ccccc21 | TGI | > 100 µM
O=P(O)(CCP(=O)(O)c1ccccc1)c1ccccc1 | TGI | > 100 µM
COc1ccc(N2C=Nn3c(nc4sc(C)c(C)c4c3=O)C2)cc1 | TGI | > 100 µM
CC(C)Oc1c(-c2c(OC(C)C)c(=O)c2=O)c(=O)c1=O | TGI | > 100 µM
O=C(Nc1ccc(N2CCNCC2)cc1)c1[nH]ncc1Nc1ncnc2sc3c(c12)CCC3 | TGI | 1.13 µM
COc1ccc2nc3cc(Cl)ccc3c(NCCCCCC(=O)NC(COc3cnc4c(ccc5cccnc54)c3)COc3cnc4c(ccc5cccnc54)c3)c2c1 | TGI | 12.6 µM
Cc1cnc2c(C)ccc([N+](=O)[O-])c2c1NCCCN(C)C | TGI | > 100 µM
COc1ccc2[nH]c3c(c2c1)CCN(C)CC3 | TGI | > 100 µM
COc1cc(/C(C#N)=C/c2ccc3c(c2OC)OCO3)cc2c1OCO2 | TGI | 4.62 µM
CCN(CC)Cc1nc2sc3c(c2c(=O)n1-c1ccccc1)CCCC3 | TGI | > 100 µM
CCOC(=O)c1c2c(n3ccc(NC(=O)CCN4CCCC4)cc13)C(=O)c1ncccc1C2=O | TGI | 5.41 µM

// data source = PubChem BioAssay (NCI)
